- System: DU-145 prostate
- assay-summary: NCI tumour cell line growth inhibition, 48 h
Record form. Attribute: TGI. Fill in for each entry.

TGI reading for C[C@@H]1CCc2ncc(F)cc2[C@H]2CCCN2c2ccn3ncc(c3n2)C(=O)N1 : > 100 µM

Kindly note the recorded TGI for CN(CCc1ccccn1)c1ccc2c(c1)C(=O)c1ccccc1-2 , which is > 100 µM

Value of measured TGI for the entry COc1cc(/C=C2\SC(N3CCCCC3)=NC2=O)ccc1OCCCCCCOc1ccc(/C=C2\SC(N3CCCCC3)=NC2=O)cc1OC : 17.6 µM

Reported TGI of O=C1Oc2ccccc2C(=O)/C1=C/N1C(=O)CNC1=S : > 100 µM

Record CCOC(=O)c1nc2ccc(C(F)(F)F)cc2nc1Nc1ccc(OC)cc1 , field TGI: > 100 µM

Reported TGI ( COc1ccc2nc3ccc(OC)cc3c(SCCCl)c2c1 ) = > 65 µM

Item: COCC(C(=O)OC1C/C=C/C=C/C(=O)OC(C(C)C(O)C(C)CCC(OC(=O)C(C)N(C)C)C(C)C(OC(C)=O)C(C)/C=C/N(C)C=O)C/C=C/C(OC)CC(C)C/C=C(\C)C(OC)CCC(C)C(O)C1C)N(C)C (stereo not given) | TGI: 0.000156 µM

// TGI lookup, molecule = COc1cc(C2c3cc4c(cc3C(=O)C3CCC(=O)N32)OCO4)cc(OC)c1O (stereo not given) , result: > 50 µM

TGI for CN(N=O)c1nc2c(C(N)=O)ncn2s1 is > 100 µM

Short answer for O=c1c(Sc2c(SCSc3cnc4ccccc4c3Sc3c[nH]c4ccccc4c3=O)cnc3ccccc23)c[nH]c2ccccc12 : TGI was > 100 µM

---

- System: UACC-257 melanoma
- assay-summary: NCI tumour cell line growth inhibition, 48 h
Exercise: state measured TGI for each of the compounds provided.

For reference, reported TGI for O=c1oc2c3ccc4ccccc4c3n(CCN3CCCCC3)c2c2ccccc12 stands at > 100 µM

Record Cc1cc(-c2nc3c(F)cccc3s2)ccc1N . Reported TGI: > 100 µM

The recorded TGI for entry CN1CCC(C(O)(c2ccccc2)c2ccc(Br)cc2)CC1 (centres undefined) equals 29.7 µM

GET /value?item= COc1ccccc1NC(=O)C1=C(C)NC(C)=C(C(=O)Nc2ccccc2OC)C1c1ccco1 &field=TGI returns 43.4 µM

response.value for COc1cccc(/C=N\NC(=O)C(C)SC(C)C(=O)N/N=C/c2cccc(OC)c2)c1 (centres undefined) (field: TGI) = > 100 µM

Reported TGI of COc1cc(NC2CCCCC2O)c2nc(-c3ccc(Cl)cc3)ccc2c1 (centres undefined) : > 100 µM

# compound CC(C)(C)OC(=O)CCCCCNC(=O)CCCCCNC(=O)CCC(CN(CC(=O)OCc1ccccc1)CC(=O)OCc1ccccc1)N(CC(=O)OCc1ccccc1)CC(=O)OCc1ccccc1 (centres undefined) ; its TGI = > 100 µM

The recorded TGI for entry C#C[C@]1(O)CC[C@H]2[C@@H]3CC=C4c5nc(N)sc5CC[C@]4(C)[C@H]3CC[C@@]21C equals 6.86 µM

Item: COC(=O)c1c(O)ccc2c1c1cc3ccccc3c(O)c1n2CCc1ccc(OC)c(OC)c1 | TGI: > 100 µM

---

- Test system: U251 CNS
- assay-summary: NCI tumour cell line growth inhibition, 48 h
observed-property: TGI

// returns TGI for CCCCCCCCC(O)c1ccc(/C=C\C(O)CCCC(=O)O)s1 (stereo not given) with U251 CNS; value = > 100 µM

// assay U251 CNS, entry N#C/C(=C(/O)CCl)c1nc2ccccc2o1 , TGI value = 23.8 µM

# value of TGI, U251 CNS, item O=C1NC2(CCNCC2)Oc2ccccc21 = > 100 µM

Noted TGI for CCOC(=O)CCC(NC(=O)c1ccc(NC(OC)c2nc3cc(C(F)(F)F)ccc3nc2-c2ccccc2)cc1)C(=O)OCC (stereo not given) , tested on U251 CNS: 29.8 µM

Entry COC(=O)C(=O)C(C(=O)C(=O)Nc1ccc(C)cc1C)c1nc2ccc(Cl)cc2[nH]c1=O (stereo not given) under U251 CNS had TGI of > 100 µM

---

- System: 786-0 renal
- assay-summary: NCI tumour cell line growth inhibition, 48 h
observed-property: TGI

// field: TGI; key: Clc1ccc(CN2CCCN(Cc3ccc(Cl)cc3)C2c2cc3ccccc3c3ccccc23)cc1 ; value = > 100 µM

// TGI lookup, compound = CCOC(=O)c1c[nH]c(C(=O)C=[N+]=[N-])c1C1CCN(CC)C1=S (configuration not stated) , result: > 100 µM

The recorded TGI for Cc1ccc(C2CC(c3ccc(Nc4ccnc5cc(Cl)ccc45)cc3)=NN2C=O)cc1 (configuration not stated) is > 100 µM

Sample COc1cc(-c2nn(-c3cccc(NC(=O)CCNc4ccc(N5CCOCC5)cc4)c3)cc2-c2ccncc2)ccc1Cl ; TGI observed: 34.7 µM

The measured TGI associated with C#C[C@]1(O)CC[C@H]2[C@@H]3CC=C4c5nc(N)sc5CC[C@]4(C)[C@H]3CC[C@@]21C reads 4.41 µM

Given item O=C1Cc2cn[nH]c2-c2ccccc2N1 , the value recorded as its TGI is > 100 µM

TGI measured on O=C(NCCN1CCCCC1)c1cccc(I)c1 = > 100 µM

Sure, the documented TGI for COc1ccc(C2Cc3cc(OC)c(OC)c(OC)c3C2)cc1 (configuration not stated) is > 100 µM

Short answer for CC1=CCC(C(C)(C)NC(=O)c2ccccc2)C/C1=N/O (configuration not stated) : TGI was > 100 µM

// TGI value for CC(C)(C)O/N=C/c1cc(NC(=S)c2ccsc2)ccc1Cl : 31.6 µM

Recorded TGI (compound Cn1c(=O)c2c(nc(N/N=C/c3ccccc3C(=O)O)n2C)n(C)c1=O ): > 100 µM

# TGI (compound: N#CCc1cccc(CC#N)c1Br ) is > 100 µM

TGI in this record for CSC1=Nc2c(c(C)c(-c3ccccc3)n2COC(CO)CO)C2=NC(=O)CC(C)N12 (configuration not stated) : > 100 µM

CCOc1ccc(NC(=O)C(=O)Nn2c(N)nnc2N)cc1 has a reported TGI of > 100 µM

Noted for O=[N+]([O-])/C=C/c1ccc(Cl)cc1[N+](=O)[O-] : its TGI reads 4.62 µM

Value of TGI reported for the compound C[C@@H]1CC[C@@H]2[C@@H](C1)O[C@@H]([C@@H](C)OCc1ccccc1)SC2(C)C is 34 µM

// field: TGI; key: O=C(O)CCCCC1CCSS1 (configuration not stated) ; value = > 100 µM

Note to self: TGI recorded for Cc1ccc(-c2cc(-c3ccccc3)c(C#N)c(=O)[nH]2)cc1 was > 100 µM

For reference, reported TGI for CCCCCCCCCCCCCCCCNC(=O)/C(=C\c1ccc(Cl)c(Cl)c1)NC(=O)c1ccccc1 stands at 47.4 µM

TGI for COc1cc(N(C)C)c(OC)cc1C=C1C=CC=C1 is > 100 µM

The recorded TGI for entry C=CC(=O)Nc1cc2c(Nc3ccc(F)c(Cl)c3)ncnc2cc1C#CC(C)(C)N1CCN(C)CC1 equals 2.82 µM

Data point: Nc1ncc2ncn(C3CCC(CO)O3)c2n1 (configuration not stated) ; TGI = > 100 µM

The value of TGI measured for the compound CN(C)c1ccc(C(O)C2=CC(=O)c3ccccc3C2=O)cc1 (configuration not stated) turned out to be 34.6 µM

// field: TGI; key: CC(Oc1ccc(Cl)cc1Cl)C(=O)NN1C(=O)CC(=O)N(c2ccccc2)C1=S (configuration not stated) ; value = > 100 µM

Record COC(=O)c1c(O)ccc2c1c1cc3ccccc3c(O)c1n2CCc1ccc(OC)c(OC)c1 . Reported TGI: > 100 µM

TGI recorded for this compound, CC(Cn1c2c(c3cc(O)ccc31)CCc1ccc(O)cc1-2)N(C)C (configuration not stated) , is 35.9 µM

Documented TGI of COc1cc2cc(Oc3cccc(NC(=O)Nc4cc(C(F)(F)F)cc(C(F)(F)F)c4)c3)c(C)nc2cc1OC : 3.09 µM

Documented TGI of CC1(C)C2CCC13C(=O)C1OC3(C2)C2C(=O)c3c(ccc4c3ccc3ccccc34)C(=O)C12 (configuration not stated) : > 70.3 µM

Just so you know, measured TGI for Cc1ccc(-c2cn3c(nc4ccccc43)c(/C=C/c3ccco3)n2)cc1 came out at > 100 µM

Lab note: measured TGI of O=C(/C=C/c1ccccc1O)c1ccccc1Cl was > 100 µM

Looking up O=C(O)CSc1n[nH]c(-c2ccco2)n1 , I see its TGI listed as > 100 µM

According to the records, this compound C=C1C(=O)O[C@H]2C1C[C@H](O)[C@@]1(C)OC1CC[C@@]1(C)O[C@H]21 (some centres not stated) displays TGI of 37.1 µM

Entry CCOC(=O)c1nc2ccc(C(F)(F)F)cc2nc1Nc1ccc(OC)cc1 , TGI reported as > 100 µM

Form field TGI, entry CCCCC1(C(NC(=O)c2ccccc2Cl)c2ccncc2)C(=O)N(c2ccccc2)N(c2ccccc2)C1=O (configuration not stated) : > 100 µM

Quick note, TGI for O=C(Cc1nc2ccccc2[nH]c1=O)c1c[nH]c2ccccc12 landed at 29.3 µM

Form: compound = COc1ccc(C)cc1NC(=S)C#N ; TGI = > 100 µM

According to the records, this compound COc1ccccc1N/C(SCc1ccccc1)=C(/C(Cl)=C(Cl)Cl)[N+](=O)[O-] displays TGI of 97.8 µM
